# Tested on: SR leukemia
# Procedure details: NCI tumour cell line growth inhibition, 48 h
Result type: TGI

Answered examples (5):
[[record]]
compound = "FC(F)(F)c1ccc(-c2nc(-c3nc4cc(Cl)c(Cl)cc4[nH]3)c3ccccn23)cc1"
reported_value = "> 100 µM"

[[record]]
compound = "COCOc1ccc(C(=O)C(C)c2ccc(OCOC)cc2OCOC)c(O)c1 (stereo unspecified)"
reported_value = "> 100 µM"

[[record]]
compound = "Cc1nc2sccn2c1/C=C1/C(=O)Nc2ccccc21"
reported_value = "5.44 µM"

[[record]]
compound = "COC(=O)Cc1cc(OC)c(OC)cc1Br"
reported_value = "> 100 µM"

[[record]]
compound = "O=C(Nc1c(O)[nH]c(=S)[nH]c1=O)c1ccccn1"
reported_value = "> 100 µM"


Please supply TGI for each of the following items, keeping them in order.
1. Cc1nc2ccc(CN(C)c3ccc(C(=O)N[C@@H](CCC(=O)O)C(=O)O)s3)cc2c(=O)[nH]1
2. CCSc1nnc2c(-c3ccccc3)n[nH]c2n1
3. O=C(NCCCCCCCCNC(=O)c1cnc2ccccc2n1)c1cnc2ccccc2n1
4. C=C(C)[C@@]1(O)O[C@H]2C[C@@]3(C)OC(=CC3=O)/C(C)=C\[C@@H]3OC(=O)[C@@]1(C)[C@H]32

> 100 µM
> 100 µM
> 100 µM
> 64.4 µM

Batch request: TGI for each of the following compounds.
1. CCc1nn(CN2CCN(C)CC2)c(=S)n1/N=C\c1ccc(-c2ccc([N+](=O)[O-])cc2)o1
2. CCC1(C)NN=c2s/c(=C/c3ccc(OC)cc3)c(=O)n2N1 (stereo unspecified)

["> 100 µM", "> 100 µM"]

---

Give TGI for every item shown.
# System: RPMI-8226 leukemia
# Procedure details: NCI tumour cell line growth inhibition, 48 h

# count of solved cases: 3
[[record]]
compound = "CCOC(=O)c1cnc(-n2[nH]c(C)c(CCO)c2=O)[nH]c1=O"
reported_value = "> 100 µM"

[[record]]
compound = "C=CC(=O)Nc1ccc(Nc2nccc(-c3ccc(N4CCCC4)c(C#N)c3)n2)cc1"
reported_value = "> 25 µM"

[[record]]
compound = "O=C(O)CN(c1ccccc1)S(=O)(=O)c1ccc(NC(=O)c2ccccc2)cc1"
reported_value = "> 100 µM"


Go through the items and report each one's TGI.
1. COc1cc(C(=O)OCCCCCCCCCCC[P+](c2ccccc2)(c2ccccc2)c2ccccc2)ccc1O
2. CCOc1ccccc1NC(=O)CCC(=O)OC
3. COc1cccc([C@H]2CC(=O)c3cc4c(cc3N2)OCO4)c1
4. COc1c2c(c3c(c1C1OC(C)[C@@H](C)O1)CC(C)(C)O3)C(=O)c1ccccc1C2=O (stereo partly specified)
5. CC1=C(C(=O)NCc2ccccc2)C(c2ccc(C3C(C(=O)NCc4ccccc4)=C(C)NC(C)=C3C(=O)NCc3ccccc3)cc2)C(C(=O)NCc2ccccc2)=C(C)N1

1: 0.942 µM; 2: > 71.3 µM; 3: 1.01 µM; 4: 52.2 µM; 5: > 100 µM

Each of the following entries comes with a recorded value; kindly state TGI for each.
1. Cc1ccc(C(=O)N(CCCN)[C@@H](c2nc3cc(Cl)ccc3c(=O)n2Cc2ccccc2)C(C)C)cc1
2. C1CC2=C(C1)[Se]C(=C1Sc3nsnc3S1)[Se]2
3. CCSc1nnc2c(-c3ccccc3)n[nH]c2n1

1: 1.72 µM; 2: > 100 µM; 3: > 100 µM

Batch of 2 compounds: report TGI for each.
1. COCOc1ccc(C(=O)C(C)c2ccc(OCOC)cc2OCOC)c(O)c1 (stereo unspecified)
2. Cc1ccc(S(=O)(=O)c2scc(-c3ccccc3)c2C)cc1

1: > 100 µM; 2: > 100 µM

Would you mind listing TGI for each of the following compounds?
1. CO/C(=N\N=C\c1cc(OC)ccc1OC)c1ccncc1
2. Nc1nc(N)c2ncn(CC3CCC(CO)C3)c2n1 (stereo unspecified)
3. CC/C(Cc1ccccc1)=C(\c1ccc(OCCN2CCCCCC2)cc1)c1ccc(OC(=O)NCc2ccccc2)cc1
4. CNC(=O)c1cc(COc2nnc(Nc3ccc(Cl)cc3)c3ccoc23)ccn1
5. Cc1nc2sccn2c1/C=C1/C(=O)Nc2ccccc21

> 10 µM
> 100 µM
2.87 µM
> 82.7 µM
> 100 µM

Give measured TGI for every item shown.
1. CN1CCc2cc3c(cc2C1O)OCO3 (stereo unspecified)
2. COc1cc(/C=C2/SC(c3ccccc3)N(c3ccc(NC(C)=O)cc3)C2=O)cc(OC)c1OC (stereo unspecified)

> 100 µM
> 100 µM

Look at this compound and give its reported TGI. Cc1ccc(C)n1-c1ccccc1C1SCCCS1
> 100 µM
